Target: T1, cynomolgus BLyS (full length, arginine 132 mutated to histidine) on CHO-K1 cells (cynomolgus, UniProt Q9Y275 1-285 (human entry))
T1 construct: also called cyno BLyS; CHO-K1 cynoBLyS
T1 chain: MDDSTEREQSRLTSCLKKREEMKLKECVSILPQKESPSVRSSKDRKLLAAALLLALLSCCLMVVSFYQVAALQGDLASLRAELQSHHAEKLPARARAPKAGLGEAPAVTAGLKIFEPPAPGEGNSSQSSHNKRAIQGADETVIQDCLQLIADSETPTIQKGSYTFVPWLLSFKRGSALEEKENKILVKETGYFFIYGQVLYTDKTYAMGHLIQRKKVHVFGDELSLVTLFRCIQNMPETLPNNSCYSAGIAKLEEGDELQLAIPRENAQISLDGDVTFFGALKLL
Experiment: flow cytometry (FACS) on CHO-K1 cynoBLyS cells, Alexa 488 secondary antibody
EC50 (read off the curve) for assorted binders

Solved cases below.
Binder: 35E6F7C3 (antibody, V domains shown, Mouse hybridoma antibody purified on Protein G) VH: EVQLQQSGAELVKPGASVKLSCTAAGFNIQDTYIHWVKQRPEQGLEWIGRIDPANANTVYDPKFQGKATITADTSSNTAYLQVSSLTSEDTAVYYCASPVITAGFAYWGQGTLVTVSA VL: QIVLTQSPAIMSASPGEKVTMTCGASSSVNYVHWYQQKSGTSPKRWIYDTSKLASGVPARFSGSGSGTSYSLTISSMEAEDAATYYCQQWTRSPLTFGAGTKVELK
EC50 (read off the curve): ~0.7 nM
--
Binder: L9G7 (antibody, human IgG1, V domains shown) VH: QIQLVQSGAEVKKPGASVKVSCKASGYTFTSYGISWVRQAPGQGLEWMGWISAYNGNTNYAQKLQGRVTMTTDTSTSTAYMELRSLRSDDTAVYYCARTYYDILTGYYYYGMDVWGQGTTVTVSS VL: EIVLTQSPGTLSLSPGERATLSCRTSQSVDTYLAWYQQKPGQAPRLLIYDASNRATGIPARFSGSGSGTDFTLTISSLEPEDFAVYYCQQRSNWPLTFGGGTKVEIK
EC50 (read off the curve): ~0.2 nM

We next turn to a different binder, shown below.
Specify EC50 (read off the curve) for 20D1B6E9E5 (antibody, V domains shown, Mouse hybridoma antibody purified on Protein G) VH: EVQLQQSVAELVRPGASVKLSCTASDFNIKNTYIHWVKQRPEQGLEWIGRIDPVNGNTKYAPKFQDKATIIVDTYSNTAYLQLSSLASEDTAVYYCARWPITTIVATDWYFDVWGTGTTVTVSS VL: DVLMTQTQLALPVRLGEQASISCRSSQSIVNSNGNTYLEWYLQKPGQSPKLLIYKVSNRFSGVPDRFSGSGSGTDFTLKISRVEAEDLGVYYCFQGSHVPWTFGGGTKLEIK and stop.
~0.2 nM
